Reference for the values: PubChem BioAssay AID2685

# TEST METHOD NOTES: qHTS Assay for Lipid Storage Modulators in Drosophila S3 Cells; also: potency is read from the fitted curve at half-maximal effect
# TEST CONDITIONS: BODIPY lipid droplet fluorescence, 18-24 h, cells fed with added oleic acid; series mostly up to 46.1 µM
Hit rate of the full screen: of about 320,000 compounds, about 2,100 (0.66%) were called active. Inconclusive results (about 53%) are left out. The sample as a whole holds a higher share of actives than the screen did.
MEASURED QUANTITY: Potency

Look over these answered cases.
COMPOUND	Potency
CSc1nc(N2CCN(C)CC2)c2ccccc2n1	inactive
NC(=O)C1CCN(/C=C2\C(=O)NC(=O)N(Cc3ccco3)C2=O)CC1	inactive
COc1cc(C=C2C(=O)NC(=O)NC2=O)cc(OC)c1OC	inactive
CCC(=NCCO)c1c(O)n(-c2ccc(Cl)cc2)c(=O)[nH]c1=O	inactive
COC(=O)C1=C(c2ccc(-c3ccccc3)c(F)c2)C[C@@H]2CC[C@H]1N2C(=O)NCCOc1ccccc1Cl	14.6 µM (active)

Ask: Supply Potency value. Item: O=C(COc1ccc(Cl)cc1)N(c1ccccc1Cl)C1CN2CCC1CC2 (stereo unspecified)
Result: inactive
